- TESTED_ON: T1, canine PD-1 protein amino acids 25-168 with His tag (canine, UniProt A0A090BAM7 25-168)
- T1 construct: Expressed in Expi293F cells; used as immunogen and as antigen in ELISA and Octet; also called PD-1 His
- EXPERIMENTAL_PROTOCOL: Octet BLI, supernatant captured by anti-mouse IgG Fc, PD-1 His 20 nM
Below, each of the binders is paired with its reported pKd value.
Worth noting: pKd values are minus log10 of concentrations stated in mol/L.

Known pKd results, listed for orientation:
>  <BINDER>
PD-1 A-M11 (antibody, V domains shown, Mouse IgG1 kappa, hybridoma supernatant; The VL is therefore uncertain; also called 9B04) VH: EVQLQQSGAEVVKPGASVKLSCTASGFNIKDTYMHWVKQRPEQGLEWIGRIDPAIGNPKYDPKFQGRATITADTSSNTAYLQLSSLTSEDTAVYYCASGFYAMDCWGQGTSVTVSS VL: QIVLTQSPAIMSASPGEKVTMTCSASSSITYMFWYQQKPGSSPRLWIYDTSNLVSGVPARFSGSKSGTSYSLTITSMEAEDAATYYCQQYSGYPSTFGSGTKLEIK

>  <MEASURE_NAME>
pKd

>  <READOUT_VALUE>
9.04

$$$$
>  <BINDER>
PD-1 A-M1 (antibody, mouse IgG1, V domains shown, Mouse IgG1 kappa, tested as hybridoma supernatant; also called 2C08) VH: EVQLQQSGAELVKPGASVKLSCTASGFNIKDTYMHWVKQRPEQGLEWIGRIDPAIDNTKYDPKFQGKATITADTSSNTAYLQLSSLTSEDTAVYYCASGFYTMDYWGQGTSVTVSS VL: QIVLTQSPAIMSASPGEKVTMTCSASSSVTYMYWFQQKPGSSPRLWIYDTSNLVSGVPARFSGSRSGTSYSLTISSMEAEDAATYYCQQYSGHPSSFGSGTKLEIK

>  <MEASURE_NAME>
pKd

>  <READOUT_VALUE>
6.84

$$$$
>  <BINDER>
PD-1 A-M10 (antibody, mouse IgG1, V domains shown, Mouse IgG1 kappa, hybridoma supernatant; also called 8H01) VH: EVRLQQSGAELVKPGASVKLSCTASGFNIKDTYLHWLKERPEQGLEWIGRIDPAIGNTRYDPKFQVKATITADTSSNTAYLQLSSLTSEDSAVYYCARGFYGMDYWGQGTSVTVSS VL: QIVLTQSPAIMSASPGEKVTMTCSASSSVSYMFWYQQKPGSSPRLWIYDTSNLVSGVPARFSGSRSGTSYSLTISSMEAEDAATYYCQQYSGYPYTFGGGTKLEIK

>  <MEASURE_NAME>
pKd

>  <READOUT_VALUE>
10.51

$$$$
>  <BINDER>
PD-1 A-M23 (antibody, mouse IgG1, V domains shown, Mouse IgG1 kappa, hybridoma supernatant; also called 18A08) VH: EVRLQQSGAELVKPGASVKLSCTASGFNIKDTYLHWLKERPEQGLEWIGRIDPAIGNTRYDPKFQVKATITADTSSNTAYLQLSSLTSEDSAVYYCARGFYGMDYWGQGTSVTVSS VL: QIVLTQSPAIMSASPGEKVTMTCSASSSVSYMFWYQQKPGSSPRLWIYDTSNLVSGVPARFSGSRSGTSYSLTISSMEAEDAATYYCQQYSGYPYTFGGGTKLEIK

>  <MEASURE_NAME>
pKd

>  <READOUT_VALUE>
9.27

$$$$

What value of pKd has been recorded for this entry: PD-1 A-M15 (antibody, mouse IgG1, V domains shown, Mouse IgG1 kappa, hybridoma supernatant; also called 11E10) VH: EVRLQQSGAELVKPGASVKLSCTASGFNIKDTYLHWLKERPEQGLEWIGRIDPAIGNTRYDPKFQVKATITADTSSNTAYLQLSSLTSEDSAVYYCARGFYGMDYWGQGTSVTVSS VL: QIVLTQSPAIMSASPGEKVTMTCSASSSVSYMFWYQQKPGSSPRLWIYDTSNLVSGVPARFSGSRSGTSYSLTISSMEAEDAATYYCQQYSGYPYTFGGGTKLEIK
7.98
